Just for reference, patent US8927500B2 is where these values come from.

Hi there, I'd appreciate the recorded 6.25 uM % Lysed cells (1 h LDH) for every entry that follows.
- Tested on: SJSA-1 cells
- assay-protocol: Cell lysis by peptidomimetic macrocycles (LDH release)
- Format: cell-based
- condition-description: 6.25 uM, 1 h at 37C
Where a SMILES comes first, the peptide text is derived from it. Bridges are numbered along the chain shown (N, C = ends). [ ]: non-standard residue; d: D form. R8 = C=CCCCCCC[C@@](C)(N)C(=O)O; Chg = N[C@H](C(=O)O)C1CCCCC1; S5 = C=CCCC[C@](C)(N)C(=O)O
Quick reminder: number only, in %, skip the unit.

CC[C@H](C)[C@H](NC(=O)[C@H](C)NC(=O)[C@H](C)NC(=O)[C@]1(C)CCCC=CCCCCCC[C@@](C)(NC(=O)[C@H](Cc2ccccc2)NC(=O)[C@@H](NC(=O)[C@H](CC(C)C)NC(C)=O)[C@@H](C)O)C(=O)N[C@@H](C)C(=O)N[C@@H](Cc2ccc(O)cc2)C(=O)N[C@@H](Cc2c[nH]c3ccccc23)C(=O)N[C@@H](C)C(=O)N[C@@H](CCC(N)=O)C(=O)N[C@@H](CC(C)C)C(=O)N1)C(=O)N[C@@H](C)C(N)=O (single isomer, unassigned) [compound 65] tested on SJSA-1 cells gave 6.25 uM % Lysed cells (1 h LDH): 0

CC[C@H](C)[C@H](NC(=O)[C@H](C)NC(=O)[C@H](C)NC(=O)[C@]1(C)CCCC=CCCCCCC[C@@](C)(NC(=O)[C@H](Cc2ccccc2)NC(=O)[C@@H](NC(=O)[C@H](CCC(=O)O)NC(C)=O)[C@@H](C)O)C(=O)N[C@@H](CCC(=O)O)C(=O)N[C@@H](Cc2c[nH]cn2)C(=O)N[C@@H](Cc2c[nH]c3ccccc23)C(=O)N[C@@H](C)C(=O)N[C@@H](CCC(N)=O)C(=O)N[C@@H](CC(C)C)C(=O)N1)C(=O)N[C@H](C)C(N)=O (single isomer, unassigned) [compound 174] tested on SJSA-1 cells gave 6.25 uM % Lysed cells (1 h LDH): 5

CSCC[C@H](NC(=O)[C@H](C)NC(=O)[C@H](C)NC(=O)[C@]1(C)CCCC=CCCCCCC[C@@](C)(NC(=O)[C@H](Cc2ccccc2)NC(=O)[C@@H](NC(=O)[C@H](CC(C)C)NC(C)=O)[C@@H](C)O)C(=O)N[C@@H](C)C(=O)N[C@@H](Cc2ccc(O)cc2)C(=O)N[C@@H](Cc2c[nH]c3ccccc23)C(=O)N[C@@H](C)C(=O)N[C@@H](C)C(=O)N[C@@H](CC(C)C)C(=O)N1)C(=O)N[C@H](C)C(N)=O [compound 72] (Ac-LTF[R8]AYWAAL[S5]AAM[dA]-NH2; staple 4-11) tested on SJSA-1 cells gave 6.25 uM % Lysed cells (1 h LDH): 2

CC[C@H](C)[C@H](NC(=O)[C@H](C)NC(=O)[C@H](C)NC(=O)[C@]1(C)CCC/C=C/CCCCCC[C@@](C)(NC(=O)[C@H](Cc2ccccc2)NC(=O)[C@@H](NC(=O)[C@H](CC(C)C)NC(C)=O)[C@@H](C)O)C(=O)N[C@@H](C)C(=O)N[C@@H](Cc2ccc(O)cc2)C(=O)N[C@@H](Cc2c[nH]c3ccccc23)C(=O)N[C@@H](C)C(=O)N[C@@H](CCC(N)=O)C(=O)N[C@@H](CC(C)C)C(=O)N1)C(=O)N[C@H](C)C(N)=O [compound 71] tested on SJSA-1 cells gave 6.25 uM % Lysed cells (1 h LDH): 0

CCCCCC(=O)N[C@@H](CC(C)C)C(=O)N[C@H](C(=O)N[C@@H](Cc1ccccc1)C(=O)N[C@]1(C)CCCCCCC=CCCC[C@@](C)(C(=O)N[C@@H](CO)C(=O)N[C@@H](C)C(=O)N[C@@H](C)C(N)=O)NC(=O)[C@H](CCC(C)C)NC(=O)[C@H](CCC(N)=O)NC(=O)[C@H](C)NC(=O)[C@H](Cc2c[nH]c3ccccc23)NC(=O)[C@H](Cc2ccc(O)cc2)NC(=O)[C@H](CCC(=O)O)NC1=O)[C@@H](C)O [compound 280] tested on SJSA-1 cells gave 6.25 uM % Lysed cells (1 h LDH): 5

CC[C@H](C)[C@H](NC(=O)[C@H](C)NC(=O)[C@H](C)NC(=O)[C@]1(C)CCCC=CCCCCCC[C@@](C)(NC(=O)[C@H](Cc2ccccc2)NC(=O)[C@@H](NC(=O)[C@H](CC(C)C)NC(C)=O)[C@@H](C)O)C(=O)N[C@@H](CCC(=O)O)C(=O)N[C@@H](Cc2ccc(C(=O)O)cc2)C(=O)N[C@@H](Cc2c[nH]c3cc(Cl)ccc23)C(=O)N[C@@H](C)C(=O)N[C@@H](CCC(N)=O)C(=O)N[C@@H](CC2CCC2)C(=O)N1)C(=O)N[C@H](C)C(N)=O (single isomer, unassigned) [compound 336] tested on SJSA-1 cells gave 6.25 uM % Lysed cells (1 h LDH): 0

CC(=O)N[C@@H](CC(C)C)C(=O)N[C@H](C(=O)N[C@@H](Cc1ccccc1)C(=O)N[C@]1(C)CCCCCCC=CCCC[C@@](C)(C(=O)N[C@@H](CO)C(=O)N[C@@H](C)C(=O)N[C@@H](CO)C(N)=O)NC(=O)[C@H](CC(C)C)NC(=O)[C@H](CCC(N)=O)NC(=O)[C@H](C)NC(=O)[C@H](Cc2c[nH]c3ccccc23)NC(=O)[C@H](Cc2ccc(O)cc2)NC(=O)[C@H](C)NC1=O)[C@@H](C)O [compound 122] (Ac-LTF[R8]AYWAQL[S5]SAS-NH2; staple 4-11) tested on SJSA-1 cells gave 6.25 uM % Lysed cells (1 h LDH): 1

CC(=O)N[C@@H](CC(C)C)C(=O)N[C@H](C(=O)N[C@@H](Cc1ccccc1)C(=O)N[C@]1(C)CCCCCCC=CCCC[C@@](C)(C(=O)N[C@@H](CO)C(=O)N[C@@H](C)C(=O)N[C@H](C(N)=O)C2CCCCC2)NC(=O)[C@H](CC(C)C)NC(=O)[C@H](CCC(N)=O)NC(=O)[C@H](C)NC(=O)[C@H](Cc2c[nH]c3ccccc23)NC(=O)[C@H](Cc2ccc(O)cc2)NC(=O)[C@H](C)NC1=O)[C@@H](C)O [compound 9] (Ac-LTF[R8]AYWAQL[S5]SA[Chg]-NH2; staple 4-11) tested on SJSA-1 cells gave 6.25 uM % Lysed cells (1 h LDH): −3

CC(=O)N[C@@H](CCC(=O)O)C(=O)N[C@H](C(=O)N[C@@H](Cc1ccccc1)C(=O)N[C@]1(C)CCCCCCC=CCCC[C@@](C)(C(=O)N[C@@H](C)C(=O)N[C@@H](C)C(=O)N[C@@H](C)C(=O)N[C@@H](C)C(=O)N[C@@H](C)C(=O)N[C@H](C)C(N)=O)NC(=O)[C@H](CC(C)C)NC(=O)[C@H](CCC(N)=O)NC(=O)[C@H](C)NC(=O)[C@H](Cc2c[nH]c3ccccc23)NC(=O)[C@H](Cc2ccc(O)cc2)NC(=O)[C@H](CCC(=O)O)NC1=O)[C@@H](C)O (single isomer, unassigned) [compound 340] tested on SJSA-1 cells gave 6.25 uM % Lysed cells (1 h LDH): 0

###

Hi there, I'd appreciate the recorded 6.25 uM % Lysed cells (1 h LDH) for every entry that follows.
- System: SJSA-1 cells
- assay-protocol: Cell lysis by peptidomimetic macrocycles (LDH release)
- Format: cell-based
- condition-description: 6.25 uM, 1 h at 37C
Where a SMILES comes first, the peptide text is derived from it. Bridges are numbered along the chain shown (N, C = ends). [ ]: non-standard residue; d: D form. R8 = C=CCCCCCC[C@@](C)(N)C(=O)O; Cha = N[C@@H](CC1CCCCC1)C(=O)O; S5 = C=CCCC[C@](C)(N)C(=O)O
Quick reminder: number only, in %, skip the unit.

In plain terms, `CC(=O)N[C@@H](CC(C)C)C(=O)N[C@H](C(=O)N[C@@H](Cc1ccc(F)c(F)c1)C(=O)N[C@]1(C)CCCCCC/C=C/CCC[C@@](C)(C(=O)N[C@@H](CO)C(=O)N[C@@H](C)C(=O)N[C@@H](C)C(N)=O)NC(=O)[C@H](CCC(C)C)NC(=O)[C@H](CCC(N)=O)NC(=O)[C@H](C)NC(=O)[C@H](Cc2c[nH]c3ccccc23)NC(=O)[C@H](Cc2ccc(O)cc2)NC(=O)[C@H](CCC(=O)O)NC1=O)[C@@H](C)O` has a documented 6.25 uM % Lysed cells (1 h LDH) of −1

In plain terms, CC(=O)N[C@@H](C)C(=O)N[C@@H](CC(C)C)C(=O)N[C@H](C(=O)N[C@@H](Cc1ccccc1)C(=O)N[C@]1(C)CCCCCCC=CCCC[C@@](C)(C(=O)N[C@@H](CO)C(=O)N[C@@H](C)C(=O)N[C@@H](C)C(=O)N[C@@H](C)C(=O)N[C@H](C)C(N)=O)NC(=O)[C@H](CC2CCC2)NC(=O)[C@H](CCC(N)=O)NC(=O)[C@H](C)NC(=O)[C@H](Cc2c[nH]c3ccccc23)NC(=O)[C@H](Cc2ccc(O)cc2)NC(=O)[C@H](CCC(=O)O)NC1=O)[C@@H](C)O (single isomer, unassigned) has a documented 6.25 uM % Lysed cells (1 h LDH) of 0

In plain terms, CC(=O)N[C@@H](CC(C)C)C(=O)N[C@H](C(=O)N[C@@H](Cc1ccccc1)C(=O)N[C@]1(C)CCCCCCC=CCCC[C@@](C)(C(=O)N[C@@H](C)C(=O)N[C@@H](C)C(=O)N[C@H](C(=O)N[C@H](C)C(N)=O)C(C)C)NC(=O)[C@H](CC(C)C)NC(=O)[C@H](CCC(N)=O)NC(=O)[C@H](C)NC(=O)[C@H](Cc2c[nH]c3ccccc23)NC(=O)[C@H](Cc2ccc(O)cc2)NC(=O)[C@H](CCC(=O)O)NC1=O)[C@@H](C)O (single isomer, unassigned) has a documented 6.25 uM % Lysed cells (1 h LDH) of 3

In plain terms, `CCCC[C@H](NC(=O)[C@H](C)NC(=O)[C@H](C)NC(=O)[C@]1(C)CCC/C=C/CCCCCC[C@@](C)(NC(=O)[C@H](Cc2ccccc2)NC(=O)[C@@H](NC(=O)[C@H](CC(C)C)NC(C)=O)[C@@H](C)O)C(=O)N[C@@H](C)C(=O)N[C@@H](Cc2ccc(O)cc2)C(=O)N[C@@H](Cc2c[nH]c3ccccc23)C(=O)N[C@@H](C)C(=O)N[C@@H](CCC(N)=O)C(=O)N[C@@H](CC(C)C)C(=O)N1)C(=O)N[C@@H](C)C(N)=O` has a documented 6.25 uM % Lysed cells (1 h LDH) of 1

In plain terms, CC(=O)N[C@@H](CC(C)C)C(=O)N[C@H](C(=O)N[C@@H](Cc1ccccc1)C(=O)N[C@]1(C)CCCCCCC=CCCC[C@@](C)(C(=O)N[C@@H](Cc2c[nH]cn2)C(=O)N[C@@H](Cc2c[nH]cn2)C(=O)N[C@@H](CC(C)C)C(=O)N[C@H](C)C(N)=O)NC(=O)[C@H](CC(C)C)NC(=O)[C@H](CCC(N)=O)NC(=O)[C@H](C)NC(=O)[C@H](Cc2c[nH]c3ccccc23)NC(=O)[C@H](Cc2ccc(O)cc2)NC(=O)[C@H](C)NC1=O)[C@@H](C)O [compound 43] (Ac-LTF[R8]AYWAQL[S5]HHL[dA]-NH2; staple 4-11) has a documented 6.25 uM % Lysed cells (1 h LDH) of 0

In plain terms, CC[C@H](C)[C@H](NC(=O)[C@H](C)NC(=O)[C@H](C)NC(=O)[C@]1(C)CCCC=CCCCCCC[C@@](C)(NC(=O)[C@H](Cc2ccccc2)NC(=O)[C@@H](NC(=O)[C@H](CC(C)C)NC(C)=O)[C@@H](C)O)C(=O)N[C@@H](C)C(=O)N[C@@H](Cc2ccc(C(=O)O)cc2)C(=O)N[C@@H](Cc2c[nH]c3ccccc23)C(=O)N[C@@H](C)C(=O)N[C@@H](CCC(N)=O)C(=O)N[C@@H](CC(C)C)C(=O)N1)C(=O)N[C@H](C)C(N)=O (single isomer, unassigned) has a documented 6.25 uM % Lysed cells (1 h LDH) of 0

In plain terms, CC(=O)N[C@@H](Cc1ccccc1)C(=O)N[C@]1(C)CCCCCCC=CCCC[C@@](C)(C(=O)N[C@@H](Cc2c[nH]cn2)C(=O)N[C@@H](CCCNC(=N)N)C(=O)N[C@@H](Cc2ccccc2)C(=O)N[C@@H](CC2CCCCC2)C(N)=O)NC(=O)[C@H](CC(C)C)NC(=O)[C@H](CCC(N)=O)NC(=O)[C@H](Cc2c[nH]cn2)NC(=O)[C@H](Cc2c[nH]c3ccccc23)NC(=O)[C@H](Cc2c[nH]cn2)NC(=O)[C@H](Cc2c[nH]cn2)NC1=O [compound 55] (Ac-F[R8]HHWHQL[S5]HRF[Cha]-NH2; staple 2-9) has a documented 6.25 uM % Lysed cells (1 h LDH) of 1

In plain terms, CCCC[C@H](NC(=O)[C@H](C)NC(=O)[C@H](C)NC(=O)[C@]1(C)CCCC=CCCCCCC[C@@](C)(NC(=O)[C@H](Cc2ccccc2)NC(=O)[C@@H](NC(=O)[C@H](CC(C)C)NC(C)=O)[C@@H](C)O)C(=O)N[C@@H](C)C(=O)N[C@@H](Cc2ccc(O)cc2)C(=O)N[C@@H](Cc2c[nH]c3ccccc23)C(=O)N[C@@H](C)C(=O)N[C@@H](CCC(N)=O)C(=O)N[C@@H](CC(C)C)C(=O)N1)C(=O)N[C@H](C)C(N)=O (single isomer, unassigned) has a documented 6.25 uM % Lysed cells (1 h LDH) of −1
